- System: KB
- assay.procedure: Antiproliferative activity against human KB cells expressing human reduced folate carrier/folate receptor alpha after 96 hrs by celltiter-blue cell viability assay in presence of folic acid
reported.metric: IC50

Query: Report IC50 under test system KB for `Nc1nc2sc(CCCCCc3ccc(C(=O)N[C@@H](CCC(=O)O)C(=O)O)cc3)cc2c(=O)[nH]1` .
Result: > 1 µM

Query: Identify measured IC50 obtained with KB for `Nc1nc2sc(CCCCCCCc3ccc(C(=O)N[C@@H](CCC(=O)O)C(=O)O)cc3)cc2c(=O)[nH]1` .
Result: > 1 µM

Query: State measured IC50 of the molecule `Nc1nc2sc(CCCCCCc3ccc(C(=O)N[C@@H](CCC(=O)O)C(=O)O)cc3)cc2c(=O)[nH]1` with KB.
Result: > 1 µM

Query: Find the measured IC50 of `Nc1nc2sc(CCCCc3ccc(C(=O)N[C@@H](CCC(=O)O)C(=O)O)cc3)cc2c(=O)[nH]1` with KB as test system.
Result: > 1 µM

Query: Report value: IC50, system: KB, molecule: `Nc1nc2sc(CCCc3ccc(C(=O)N[C@@H](CCC(=O)O)C(=O)O)cc3)cc2c(=O)[nH]1`
Result: > 1 µM

Query: Report measured IC50 on KB; entry: `Nc1nc2sc(CCc3ccc(C(=O)N[C@@H](CCC(=O)O)C(=O)O)cc3)cc2c(=O)[nH]1`
Result: > 1 µM

Query: Lab note: KB assay, enter IC50 for `Nc1nc2sc(CCCCCCCCc3ccc(C(=O)N[C@@H](CCC(=O)O)C(=O)O)cc3)cc2c(=O)[nH]1` here
Result: > 1 µM

----------
- System: KB
- assay.procedure: Antiproliferative activity against human KB cells expressing human reduced folate carrier/folate receptor alpha after 96 hrs by celltiter-blue cell viability assay
pIC50: −log10 of the molar value.
reported.metric: pIC50

Query: Using the record for `Nc1nc2sc(CCCCCc3ccc(C(=O)N[C@@H](CCC(=O)O)C(=O)O)cc3)cc2c(=O)[nH]1` , state its measured pIC50.
Result: 6.88

Query: Find the measured pIC50 of `Nc1nc2sc(CCCCCCCCc3ccc(C(=O)N[C@@H](CCC(=O)O)C(=O)O)cc3)cc2c(=O)[nH]1` and report it.
Result: < 6.00

Query: Give the reported value of pIC50 for this record: `Nc1nc2sc(CCCCCCCc3ccc(C(=O)N[C@@H](CCC(=O)O)C(=O)O)cc3)cc2c(=O)[nH]1`
Result: < 6.00

Query: Using the record for `Nc1nc2sc(CCc3ccc(C(=O)N[C@@H](CCC(=O)O)C(=O)O)cc3)cc2c(=O)[nH]1` , state its measured pIC50.
Result: < 6.00
